Where these numbers come from: PubChem BioAssay

Provide the recorded composite z-score for the entries that follow.
target: Left-right determination factor 2 (Homo sapiens); test: LEFTY2 binders on small-molecule microarrays, primary screen, biochemical, small-molecule microarray, 635 nm fluorescence scan (AID 1110); conditions: LEFTY2 binding, higher = more signal
Answers are plain numbers.

Below, 3 molecules whose answers are already recorded.
O=C1OCCC/C=C\[C@H]2OC34C=CCN(Cc5ccccc5)C(=O)[C@H]3N(CCCO)C(=O)[C@@H]4C12 (some centres undefined): -2.09
CCOC(=O)C[C@H]1[C@H](OC(=O)c2ccc(-c3ccccc3)cc2)[C@@H](NC(=O)Cc2ccc(OC)cc2)c2cc(OCCCO)ccc2N1C(=O)c1ccccc1: -0.458
COc1ccc(CCNC(=O)[C@@]2(Sc3ccc(C)cc3)CC(=O)N(C(C)C)[C@@H]2c2ccc(CO)cc2I)cc1: -1.09

Consider the molecule shown here: O=C1C2C=CC(C(O)Cc3ccccc3)N(n3cnnc3)C2C(=O)N1Cc1ccccc1 (centres undefined) What is its recorded composite z-score?
-0.262

====

tested on: wheat germ agglutinin (Triticum aestivum), Alexa647-labelled; test: wheat germ agglutinin binders on compound microarrays, profiling panel, artefact control for SMM control-protein annotation, biochemical, small-molecule microarray, 635/667 nm fluorescence (AID 1140); conditions: WGA-A647 binding, 635 nm fluorescence, higher = more signal;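 further: score merges 667 nm feature emission with signal to noise over triplicate slides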
Provide the recorded composite z-score for the entries that follow.
Give bare numbers.

Below, 5 molecules whose answers are already recorded.
[N-]=[N+]=Nc1ccccc1[C@@H]1OC(c2ccc(OCCCO)cc2)=N[C@]1(CCS(=O)(=O)c1ccccc1)C(N)=O: 0.881
CC1(C)C2C=C(C(O)C3C=CC4C(=O)NC(=O)C4N3Nc3ccc(Cl)cc3Cl)C[C@@H]1C2 (stereo partly specified): 0.698
CC1(C)[C@@H]2CC(C(O)C3C=CC4C(=O)N(Cc5ccccc5)C(=O)C4N3n3cnnc3)=C[C@H]1C2 (stereo partly specified): 0.901
O=C1C2C=CC(C(O)c3cc(C(F)(F)F)cc(C(F)(F)F)c3)N(n3cnnc3)C2C(=O)N1Cc1ccccc1 (stereo unspecified): 1.05
C=C[C@H](CO)NS(=O)(=O)c1ccc(Br)cc1: 0.279

Let us examine a further case.
Consider the molecule shown here: COc1ccc(C#Cc2ccc3c(c2)[C@]2(C(=O)N3)[C@H](C(=O)Nc3nc4ccccc4s3)[C@H]3C(=O)O[C@H](c4ccccc4)[C@H](c4ccccc4)N3[C@@H]2c2ccc(O)cc2)cc1 What is its recorded composite z-score?
1.18

====

test: FRG1 promoter luciferase signal modulators, primary screen, FRG1 inhibition for FSHD, cell-based, C2C12 myotubes, firefly/Renilla luciferase, luminescence (AID 1084); conditions: higher = more signal, called active from +8 up or from −8 down
Active and inactive are the calls of the source.
property_label: z-score

Below, 5 compounds whose answers are already recorded.
C=C(COC)C(=O)CC[C@@H](OC(C)=O)c1ccc(CO)o1: 0.632 (inactive)
CC1CC/C=C\[C@H]2OC34C=CCN(Cc5ccccc5)C(=O)[C@H]3N(CCCO)C(=O)[C@@H]4C2C(=O)O1 (some centres not stated): 0.242 (inactive)
COCCOC(=O)N1C(=O)[C@@]2(c3cc(C#CCC(C(=O)OC)C(=O)OC)ccc31)[C@H](c1ccccc1OCCO)N1[C@H](c3ccccc3)[C@H](c3ccccc3)OC(=O)[C@H]1[C@@H]2C(=O)NC[C@H](O)c1ccccc1: -0.923 (inactive)
CC1(C)[C@@H]2CC(C(O)C3C=CC4C(=O)N(Cc5ccccc5)C(=O)C4N3n3cnnc3)=C[C@H]1C2 (some centres not stated): 0.349 (inactive)
CCCC#C[Si](O[C@H](CC)c1cn(Cc2cccc(Cl)c2)nn1)(C(C)C)C(C)C: 0.414 (inactive)

Hey, can you go through the list below and give me z-score for every item?
1. CCCC[C@@H]1C[C@H]1[C@@H](NC(=O)c1ccco1)c1ccc(-c2ccccc2)cc1
2. CCC[C@@H]1C[C@@]1(CCC)[C@@H](NC(=O)c1ccccc1)c1cccc(Cl)c1

["1.85 (inactive)", "0.379 (inactive)"]
